Data credit: BigSolDB 2.1

# Particulars: in n-butanol, 349.4 K
Value kind: solubility (mole fraction)

            test_smiles  value
0  C[N+](C)(C)CCO.[Cl-]  0.131

* * *

# Particulars: in n-butanol, 304.8 K
Value kind: solubility (mole fraction)

>>> df
                          test_smiles  value
0  C[N+](C)(C)CCOC(=O)CCCC(=O)O.[Cl-]  0.001

* * *

# Particulars: in n-propanol, 308.7 K
Value kind: solubility (mole fraction)

In [3]: df
Out[3]:
            test_smiles                  value_kind  value
0  C[N+](C)(C)CCO.[Cl-]  solubility (mole fraction)   0.05

* * *

# Particulars: in n-butanol, 346.4 K
Value kind: solubility (mole fraction)

In [3]: df
Out[3]:
            test_smiles                  value_kind  value
0  C[N+](C)(C)CCO.[Cl-]  solubility (mole fraction)  0.109

* * *

# Particulars: in n-propanol, 309.4 K
Value kind: solubility (mole fraction)

>>> df
                          test_smiles  value
0  C[N+](C)(C)CCOC(=O)CCCC(=O)O.[Cl-]  0.003

* * *

# Particulars: in n-propanol, 295.7 K
Value kind: solubility (mole fraction)

            test_smiles  value
0  C[N+](C)(C)CCO.[Cl-]  0.023

* * *

# Particulars: in ethanol, 278.5 K
Value kind: solubility (mole fraction)

>>> print(df.to_string())
                 test_smiles                  value_kind  value
0  CC(=O)[O-].C[N+](C)(C)CCO  solubility (mole fraction)  0.252

* * *

# Particulars: in n-propanol, 310.9 K
Value kind: solubility (mole fraction)

>>> df
                         test_smiles  value
0  C[N+](C)(C)CCOC(=O)CCC(=O)O.[Cl-]   0.01

* * *

# Particulars: in n-butanol, 312.7 K
Value kind: solubility (mole fraction)

>>> print(df.to_string())
                         test_smiles  value
0  C[N+](C)(C)CCOC(=O)CCC(=O)O.[Cl-]  0.006

* * *

# Particulars: in ethanol, 305.7 K
Value kind: solubility (mole fraction)

>>> print(df.to_string())
            test_smiles  value
0  C[N+](C)(C)CCO.[Cl-]  0.098

* * *

# Particulars: in n-butanol, 341 K
Value kind: solubility (mole fraction)

>>> df
                          test_smiles                  value_kind  value
0  C[N+](C)(C)CCOC(=O)CCCC(=O)O.[Cl-]  solubility (mole fraction)  0.004

* * *

# Particulars: in n-butanol, 279.9 K
Value kind: solubility (mole fraction)

>>> df
                 test_smiles  value
0  CC(=O)[O-].C[N+](C)(C)CCO  0.102

* * *

# Particulars: in n-propanol, 273.1 K
Value kind: solubility (mole fraction)

>>> print(df.to_string())
                 test_smiles                  value_kind   value
0  CC(=O)[O-].C[N+](C)(C)CCO  solubility (mole fraction)  0.0844

* * *

# Particulars: in n-propanol, 331.2 K
Value kind: solubility (mole fraction)

                          test_smiles  value
0  C[N+](C)(C)CCOC(=O)CCCC(=O)O.[Cl-]  0.011
